STUDY_TARGET: Ubiquitin carboxyl-terminal hydrolase 30 (Homo sapiens) (UniProt Q70CQ3)
Sequence (Q70CQ3 whole entry, looked up): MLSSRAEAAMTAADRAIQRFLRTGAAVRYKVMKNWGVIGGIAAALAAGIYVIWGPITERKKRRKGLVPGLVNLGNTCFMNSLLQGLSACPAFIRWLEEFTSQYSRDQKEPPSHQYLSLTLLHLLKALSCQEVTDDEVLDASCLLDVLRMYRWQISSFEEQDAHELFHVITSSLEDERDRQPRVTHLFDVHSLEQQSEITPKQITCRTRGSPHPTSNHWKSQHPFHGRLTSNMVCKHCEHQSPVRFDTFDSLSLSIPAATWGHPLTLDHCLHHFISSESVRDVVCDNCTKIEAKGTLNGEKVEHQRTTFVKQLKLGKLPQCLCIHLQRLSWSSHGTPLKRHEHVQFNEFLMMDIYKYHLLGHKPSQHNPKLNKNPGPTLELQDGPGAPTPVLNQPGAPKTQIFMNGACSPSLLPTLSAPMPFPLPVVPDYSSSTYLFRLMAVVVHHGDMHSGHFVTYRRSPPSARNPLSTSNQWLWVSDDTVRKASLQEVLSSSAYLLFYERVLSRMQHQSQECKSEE
PROTOCOL_DESCRIPTION: inhibitors of human USP30 deubiquitinase (AID 1645860)
CONDITION_DETAILS: purified USP30, Ub-rhodamine cleavage fluorescence; at 25 µM; stronger effect = higher value
About 2,500 (5.3%) of roughly 47,000 compounds were called active. This excerpt belongs to a sample that is enriched for actives.
# inhibition values compiled below
TEST_READOUT: inhibition (%)

> print(dat)
                                   molecule  readout.value
1  Cc1cncc(C2CCCN(C(=O)CCc3cc(Cl)no3)C2)n1 (stereo unspecified)          -18.4
2         CN(CCc1ccccn1)CC(=O)N1CCc2ccccc21         -0.887
3  Cc1cnc(C(=O)N2CCC3(CC2)CC(OCC2CC2)CO3)cn1 (stereo unspecified)           -3.6
4       CC(C)c1noc2ncc(-c3nnc(C4CC4)o3)cc12          -9.16
5  CC(=O)Nc1onc(C)c1-c1ccc(C)c(S(=O)(=O)Nc2ccccc2)c1          -17.6
6   Cc1nc2ccccc2c(=O)n1CC(=O)N1CCCc2ccccc21           17.4
